Assay: Confirmation screen for delayed death inhibitors of the malarial parasite plastid, 96 hour incubation; also: nearly all actives have a fitted effect of over 60% in size; also: potency is read from the fitted curve at half-maximal effect
Settings: P. falciparum luciferase growth in erythrocytes; series mostly up to 28.7 µM
From the text: The goal of this screen is to discover new antimalarial compounds that act by inhibiting the development of the apicoplast in the malarial parasite Plasmodium falciparum. The biochemical processes that make this organelle essential for erythrocytic stage parasites are not well understood. […] Growth inhibition is detected by a decrease in luciferase activity. […]
The campaign covered roughly 2,300 compounds. About 1,400 (61%) were called active. Inconclusive results (about 29%) are left out. So high a share suggests a set chosen from earlier hits. The list shows a part of the results.
observed property: Potency

Worked examples follow.
- molecule: "O=C(NC1C=CS(=O)(=O)C1)c1sc2ccccc2c1Cl (stereo unspecified)"
  result: "0.398 µM (active)"
- molecule: "OCC1(CCOc2ccccc2)CCN(Cc2nc3ccc(F)cc3[nH]2)CC1"
  result: "12.6 µM (active)"
- molecule: "Cc1cccc(NC(=S)/N=C(\\N)Nc2nc(C)c3ccccc3n2)c1"
  result: "12.6 µM (active)"
- molecule: "CCn1c2ccccc2c2cc(/C=N/n3cn[nH]c3=S)ccc21"
  result: "6.31 µM (active)"
- molecule: "COc1ccc(OC)c(CNC(=O)c2ccc(C)c(NC(=O)C3=C(C)OCCS3)c2)c1"
  result: "10 µM (active)"

Problem: For the molecule shown here, "Cc1ccc(CN2CCC(n3nccc3NC(=O)c3ccccc3C)CC2)o1" , give the reported Potency.
Result: 12.6 µM (active)

Problem: Next entry: CCCc1cc(C(=O)N2CCCC(N3CCN(c4ccccc4F)CC3)C2)n(C)n1 (stereo unspecified)
Result: 10 µM (active)

Problem: Then what about the molecule "Cc1c(CN2CCC(CO)(CCOc3ccccc3)CC2)[nH]c2ccc(Cl)cc12" ?
Result: 5.62 µM (active)

Problem: Also need "COc1ccc(N(C)S(=O)(=O)c2cccc(C(=O)NCc3ccc(C)cc3)c2)cc1" , thanks.
Result: 14.1 µM (active)

Problem: Could you do the same for "COc1ccc(-c2nc(N3CCN(C)CC3)sc2-c2ccc(OC)cc2)cc1" , please?
Result: 12.6 µM (active)

====

# Potency per entry
Experiment: Confirmation screen for delayed death inhibitors of the malarial parasite plastid, 96 hour incubation; also: nearly all actives have a fitted effect of over 60% in size; also: potency is read from the fitted curve at half-maximal effect
Conditions: P. falciparum luciferase growth in erythrocytes; series mostly up to 28.7 µM
Screen size: about 2,300 compounds; about 1,400 (61%) were called active. Roughly 29% stayed inconclusive and do not appear here. So high a share suggests a set chosen from earlier hits. The list shows a part of the results.

- compound: "COC(=O)[C@@H]1C[C@]2(OC(=O)c3ccccc3)C=CC(=O)C[C@@H]2N1C(=O)OCc1ccccc1"
  result: "12.6 µM (active)"

Pending compound:
Problem: Given the entry Cc1cccc(N(Cc2ccccc2)C(=O)CSC(C)C(=O)Nc2cc(C)on2)c1 (stereo not given) , report its measured Potency.
Result: 8.91 µM (active)

====

Experiment: Confirmation screen for delayed death inhibitors of the malarial parasite plastid, 96 hour incubation; also: nearly all actives have a fitted effect of over 60% in size
Details: P. falciparum luciferase growth in erythrocytes; series mostly up to 28.7 µM
Among all 2,300 compounds or so, about 1,400 (61%) were called active. Roughly 29% stayed inconclusive and do not appear here. Calls follow the shape of the dose curve; as a rule, active = well fitted inhibition curve with a large enough effect; inconclusive = small, poorly fitted or top-dose-only effect, or effect the other way; inactive = no such curve, though single readings can be large or run the other way. The set was probably picked from earlier hits. Some of the results follow.
Output constraint: value belongs to YES for active, NO for inactive

Examples from the recorded data:
- compound: "O=C(CCc1ccccc1)NNC(=O)c1ccccn1"
  assigned class: "YES"
- compound: "COc1ccccc1-c1coc2cc(OC(=O)N3CCOCC3)ccc2c1=O"
  assigned class: "NO"
- compound: "O=C(NNc1c2ccccc2nc2ccccc12)C(O)c1ccccc1 (stereo unspecified)"
  assigned class: "YES"
- compound: "Cc1ccc(OCC(=O)NNc2c3ccccc3nc3ccccc23)cc1"
  assigned class: "YES"
- compound: "O=C(NCc1ccccc1)C(c1cccnc1)N(C(=O)c1ccccn1)c1ccccc1F (stereo unspecified)"
  assigned class: "NO"

With those in mind, consider the next compound.
Problem: Can you look up the reported call for "O=[N+]([O-])c1cncc([N+](=O)[O-])c1Nc1cccc(O)c1" for me?
Result: YES

====

Assay: Confirmation screen for delayed death inhibitors of the malarial parasite plastid, 96 hour incubation; also: nearly all actives have a fitted effect of over 60% in size
Conditions: P. falciparum luciferase growth in erythrocytes; series mostly up to 28.7 µM
About 1,400 (61%) of roughly 2,300 compounds were called active. Roughly 29% stayed inconclusive and do not appear here. Calls follow the shape of the dose curve; as a rule, active = well fitted inhibition curve with a large enough effect; inconclusive = small, poorly fitted or top-dose-only effect, or effect the other way; inactive = no such curve, though single readings can be large or run the other way. So high a share suggests a set chosen from earlier hits. The list shows a part of the results.
Your response should consist of one outcome taken from 1.0 for active, 0.0 for inactive

Example results:
- molecule: "COCCN(C(=O)c1ccccc1F)c1nnc(-c2ccc(OC)cc2)s1"
  assigned class: 1.0
- molecule: "O=C(/C=C/c1ccccc1Cl)c1ccc(O)cc1"
  assigned class: 1.0
- molecule: "O=C(Nc1ccc(F)cc1F)c1ccc2c(c1)[nH]c(=O)n2Cc1ccc(F)cc1"
  assigned class: 1.0
- molecule: "Cc1cccc(CS(=O)(=O)c2ncc(Cl)c(C(=O)Nc3c(C)cccc3C)n2)c1"
  assigned class: 0.0
- molecule: "CC(=O)/C=C1/C(=O)Nc2ccccc21"
  assigned class: 1.0
- molecule: "Cc1nn(-c2ccccc2)c(C)c1/C=N/n1c(-c2ccccc2Br)n[nH]c1=S"
  assigned class: 1.0
- molecule: "NC(=O)COc1ccc(C(=O)/C=C2/C(=O)Nc3ccccc32)cc1"
  assigned class: 0.0
- molecule: "Cc1cc(C)n(Cc2ccc(C(=O)N/N=C/c3ccc(-c4ccc([N+](=O)[O-])cc4)o3)o2)n1"
  assigned class: 1.0

Problem: Kindly provide the recorded test outcome for the following compound: "S=c1[nH]nc(-c2ccccn2)n1/N=C/c1ccc(-c2ccccc2Br)o1"
Result: 0.0

Problem: Try "O=C(/C=C/c1c(F)cccc1Cl)c1ccc(O)cc1" next.
Result: 1.0

====

Experiment: Confirmation screen for delayed death inhibitors of the malarial parasite plastid, 96 hour incubation; also: nearly all actives have a fitted effect of over 60% in size; also: potency is read from the fitted curve at half-maximal effect
Conditions: P. falciparum luciferase growth in erythrocytes; series mostly up to 28.7 µM
About 1,400 (61%) of roughly 2,300 compounds were called active. Not shown: some 29% with an inconclusive outcome. The set was probably picked from earlier hits. Some of the results follow.
observed property: Potency

Answered examples (3):
- molecule: "Fc1ccccc1C1c2[nH]c3ccccc3c2CCN1Cc1cccn1-c1ncccn1 (stereo not given)"
  result: "12.6 µM (active)"
- molecule: "Cc1ccccc1C1c2[nH]c3ccccc3c2CCN1Cc1cccn1-c1ncccn1 (stereo not given)"
  result: "14.1 µM (active)"
- molecule: "CCCOc1cc(NCc2ccccc2)c2ncn(C(C)C)c2c1"
  result: "2.82 µM (active)"

Problem: Record request: Potency value, item "O=C(CN(c1ccc2c(c1)OCCO2)S(=O)(=O)c1ccccc1)NCc1ccc(Cl)cc1"
Result: 12.6 µM (active)

Problem: Subsequent entry: "Cc1c(OCC(=O)NCc2cccnc2)ccc2c3c(c(=O)oc12)CCCC3"
Result: 12.6 µM (active)

Problem: And for Cc1c(OC(C)C(=O)NCc2cccnc2)ccc2c3c(c(=O)oc12)CCCC3 (stereo not given) ?
Result: 1.26 µM (active)

====

Assay: Confirmation screen for delayed death inhibitors of the malarial parasite plastid, 96 hour incubation; also: nearly all actives have a fitted effect of over 60% in size
Settings: P. falciparum luciferase growth in erythrocytes; series mostly up to 28.7 µM
Hit rate of the full screen: of about 2,300 compounds, about 1,400 (61%) were called active. About 29% were inconclusive and are not listed. Calls come from the whole dose curve; as a rule, active = well fitted inhibition curve with a large enough effect; inconclusive = small, poorly fitted or top-dose-only effect, or effect the other way; inactive = no such curve, though single readings can be large or run the other way. So high a share suggests a set chosen from earlier hits. This is one part of the list.
Tick one outcome: active, inactive

- compound: "Cc1nc(-c2ccccn2)sc1C(=O)Nc1ccc(Cl)c(Cl)c1"
  assigned class: "inactive"

Problem: Dear all, I need the recorded test outcome for "CN(C(=O)COc1coc(CN2CCN(c3ccccc3)CC2)cc1=O)c1ccccc1" , thank you.
Result: active

Problem: Record: "COc1ccc(CCNC(=O)c2cc3c(=O)n4cccc(C)c4nc3n(Cc3ccco3)c2=N)cc1OC"
Result: active

Problem: For "O=C(Nc1ccc(N2CCCCC2)c(Cl)c1)c1cccnc1" then?
Result: active

====

Experiment: Confirmation screen for delayed death inhibitors of the malarial parasite plastid, 96 hour incubation; also: nearly all actives have a fitted effect of over 60% in size
Conditions: P. falciparum luciferase growth in erythrocytes; series mostly up to 28.7 µM
In all, about 2,300 compounds went through this assay and about 1,400 (61%) were called active. Another 29% or so got no clear call; they are omitted. The call rests on the fitted dose curve; in most records, active means well fitted inhibition curve with a large enough effect; inconclusive means small, poorly fitted or top-dose-only effect, or effect the other way; inactive means no such curve, though single readings can be large or run the other way. So high a share suggests a set chosen from earlier hits. The list shows a part of the results.
Please reply with one of these outcomes: True (active), False (inactive)

Example cases with answers are listed next.
- molecule: "O=C(/C=C/c1ccc(Cl)c(Cl)c1)NCCCn1ccnc1"
  assigned class: "True"
- molecule: "Brc1ccccc1-c1nnc(COc2ncnc3c2cnn3-c2ccccc2)o1"
  assigned class: "False"
- molecule: "CCN(CC)CCn1c(SCC(=O)NCc2ccccc2)nc2c(sc3ccccc32)c1=O"
  assigned class: "True"
- molecule: "C=CCC1(O)C(=O)N2C(=C1C(=O)OCC)c1ccc3ccccc3c1CC2(C)C (stereo not drawn)"
  assigned class: "True"
- molecule: "CCCCNC(=O)c1ccc(CS(=O)(=O)c2cccc(C(F)(F)F)c2)o1"
  assigned class: "False"
- molecule: "COC(=O)c1c(-n2c(C)cc(C=O)c2C)sc2c1CCCC2"
  assigned class: "True"
- molecule: "O=C(CSc1nc2ccccc2c(=O)n1Cc1ccc(C(=O)NC2CC2)cc1)NCc1ccco1"
  assigned class: "True"
- molecule: "COc1cccc(NC(C)C(=O)Nc2cc([N+](=O)[O-])ccc2Cl)c1 (stereo not drawn)"
  assigned class: "True"

Problem: For this molecule, state the assay outcome: O=C1C(=O)c2ccccc2C(O)=C1C1CCC(c2ccc(Cl)cc2)CC1 (stereo not drawn)
Result: True

Problem: Same thing, different molecule: "COc1ccccc1OCCCOc1cccc(/C=C2\SC(=O)NC2=O)c1"
Result: True

Problem: Another molecule to look at: "Cc1ccc(-c2csc3nc[nH]c(=O)c23)cc1"
Result: False

Problem: Now the molecule "O=C(CSc1c2c(nc3ccccc13)CCCC2)NCc1ccco1"
Result: False

Problem: Param item: CCC1CCCCN1CCCNC(=O)c1ccc(CS(=O)(=O)c2ccc(Br)cc2)o1 (stereo not drawn)
Result: True
